MEASUREMENT DESCRIPTION: clinical
EXPERIMENTAL SETUP: male, human, in vivo, 0.6 mg, AUC∞, Treatment-1 (day 1): colchicine 0.6 mg alone, fasted; propafenone study; mean
OBSERVABLE: AUC(0-inf) (ng·h/mL)
One number for each entry, in ng·h/mL.

## Task Need AUC(0-inf) of COc1cc2c(c(OC)c1OC)-c1ccc(OC)c(=O)cc1[C@@H](NC(C)=O)CC2 [Colchicine] , thanks.
## Result 18.9

====

MEASUREMENT DESCRIPTION: Colchicine pharmacokinetics coadministered with voriconazole
EXPERIMENTAL SETUP: male, human, in vivo, 0.6 mg, AUC∞, Treatment-1 (day 1): colchicine 0.6 mg alone, fasted; voriconazole study; mean
OBSERVABLE: AUC(0-inf) (ng·h/mL)
Answers are plain numbers, in ng·h/mL.

## Task Need AUC(0-inf) of COc1cc2c(c(OC)c1OC)-c1ccc(OC)c(=O)cc1[C@@H](NC(C)=O)CC2 , thanks.
## Result 22.4

====

MEASUREMENT DESCRIPTION: clinical
EXPERIMENTAL SETUP: human, plasma, oral, 0.6 mg, AUCT, Treatment-1 (day 1): colchicine 0.6 mg alone, fasted; cimetidine study; mean
OBSERVABLE: AUC(0-t)
Just so you know, I need the unit written after the number.

## Task Need AUC(0-t) of COc1cc2c(c(OC)c1OC)-c1ccc(OC)c(=O)cc1[C@@H](NC(C)=O)CC2 [Colchicine] , thanks.
## Result 20.4 ng·h/mL

====

MEASUREMENT DESCRIPTION: Colchicine pharmacokinetics coadministered with voriconazole
EXPERIMENTAL SETUP: male, human, in vivo, 0.6 mg, AUCT GEOMETRIC LSMEANS, Treatment-1: colchicine 0.6 mg alone; voriconazole study
OBSERVABLE: AUC(0-t)
Just so you know, I need the unit written after the number.

## Task Need AUC(0-t) of COc1cc2c(c(OC)c1OC)-c1ccc(OC)c(=O)cc1[C@@H](NC(C)=O)CC2 [Colchicine] , thanks.
## Result 0.0179 µg·h/mL

====

MEASUREMENT DESCRIPTION: Colchicine pharmacokinetics coadministered with voriconazole
EXPERIMENTAL SETUP: male, human, in vivo, 0.6 mg, Cmax GEOMETRIC LSMEANS, Treatment-1: colchicine 0.6 mg alone; voriconazole study
OBSERVABLE: Cmax

## Task Need Cmax of COc1cc2c(c(OC)c1OC)-c1ccc(OC)c(=O)cc1[C@@H](NC(C)=O)CC2 , thanks.
## Result 2.3 ng/mL

====

MEASUREMENT DESCRIPTION: clinical
EXPERIMENTAL SETUP: male, human, in vivo, AUCT, Treatment-2 (day 9): colchicine 0.6 mg + propafenone 225 mg after twice daily days 4-8, fasted; mean
OBSERVABLE: AUC(0-t) (ng·h/mL)
One number for each entry, in ng·h/mL.

## Task Need AUC(0-t) of COc1cc2c(c(OC)c1OC)-c1ccc(OC)c(=O)cc1[C@@H](NC(C)=O)CC2 , thanks.
## Result 16.8

====

MEASUREMENT DESCRIPTION: Colchicine pharmacokinetics coadministered with voriconazole
EXPERIMENTAL SETUP: male, human, in vivo, 0.6 mg
OBSERVABLE: Tmax
Just so you know, I need the unit written after the number.

## Task Need Tmax of COc1cc2c(c(OC)c1OC)-c1ccc(OC)c(=O)cc1[C@@H](NC(C)=O)CC2 [Colchicine] , thanks.
## Result 1.38 h
